Could you please report measured cytotoxicity at 70.5 h for the items listed next?
Assay: Human HepG2 cell viability assay in 384 well format
Format: toxicity, cell-based
Set-up: dose 125 nL, time 70.5 hour; concentration not given beside the values
Conditions: HepG2 cells, read-out: Inhibition
Reply numerically in %, unit not repeated.

Query: Give the measured cytotoxicity at 70.5 h of `Cc1ccc(C(=O)CN2C(=O)c3ccccc3CS2(=O)=O)c(C)c1` .
Reply: -10.2

Query: Give the measured cytotoxicity at 70.5 h of CC(C)NC(=O)C1CN(Cc2ccc(F)cc2)CC12CCOCC2 (stereo unspecified) .
Reply: -10.5

Query: Give the measured cytotoxicity at 70.5 h of Cc1nc(CN(C)C2CCN(Cc3cccc4c3OCCO4)C2)no1 (stereo unspecified) .
Reply: 28.1

Query: Give the measured cytotoxicity at 70.5 h of `CN(Cc1cccnc1)[C@@H]1CN(C(=O)CC2CC2)[C@@H]2CCCO[C@H]12` .
Reply: 0.0586

Query: Give the measured cytotoxicity at 70.5 h of `Cc1cnc(N(C)CCCc2cnn(C)c2)nc1N(C)C` .
Reply: 14.8

Query: Give the measured cytotoxicity at 70.5 h of `Cc1nc(CN(C)C(=O)CN(C)C)nc2c1CCC(=O)N2CCC(C)C` .
Reply: -0.759

Cited source: ChEMBL document CHEMBL3507680
